- Protocol: qHTS assay to identify small molecule agonists of the TGF-beta/Smad signaling pathway (AID 1346859); note: % is set by controls: 0 for no effect and ±100 for the full control effect
- Condition Context: SBE-bla HEK293T, TGF-beta/Smad beta-lactamase reporter, 5 h; series mostly up to 76.8 µM
Records with an inconclusive call do not appear. Active and inactive are the calls of the source. Calls come from the whole dose curve; as a rule, active = well fitted activation curve with a large enough effect in the signal ratio in the repeat runs (not every such curve was filed as active); inconclusive = weak or mixed curves; inactive = flat fitted curve, though single readings scatter; the % refers to the signal ratio.
Recorded Metric: activation

CC(C)=CC1CC(C)CCO1 (stereo not drawn)    inactive
CCO[Si](C)(C)OCC    inactive
Cn1cccc1    inactive
Cc1ccc(O)cn1    inactive
CCCCCCCOC(=O)c1ccc(O)cc1    inactive

For every item in the list below, what is its measured activation?
1. O=C1OC(OC(=O)c2cccnc2Nc2cccc(C(F)(F)F)c2)c2ccccc21 (stereo not drawn)
2. c1ccc2c(c1)CCC2

output:
1: inactive; 2: inactive

###

- System: Cytochrome P450 2C19 (Homo sapiens) (UniProt P33261)
- Sequence (P33261 whole entry, looked up): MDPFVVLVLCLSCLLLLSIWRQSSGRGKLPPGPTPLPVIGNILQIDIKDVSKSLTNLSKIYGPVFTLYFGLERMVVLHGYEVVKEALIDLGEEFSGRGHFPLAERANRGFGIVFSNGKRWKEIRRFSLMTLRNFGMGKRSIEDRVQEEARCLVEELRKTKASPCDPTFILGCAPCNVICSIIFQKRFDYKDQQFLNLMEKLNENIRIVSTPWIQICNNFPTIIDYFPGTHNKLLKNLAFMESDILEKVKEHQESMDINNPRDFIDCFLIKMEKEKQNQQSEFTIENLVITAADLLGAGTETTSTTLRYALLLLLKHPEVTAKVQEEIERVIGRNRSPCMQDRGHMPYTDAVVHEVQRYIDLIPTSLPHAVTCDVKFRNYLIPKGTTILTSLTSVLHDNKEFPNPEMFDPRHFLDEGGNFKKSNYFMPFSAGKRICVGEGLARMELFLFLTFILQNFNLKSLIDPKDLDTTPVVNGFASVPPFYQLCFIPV
- Protocol: Cytochrome P450 Family 2 Subfamily C Member 19 (CYP2C19) small molecule antagonists: luciferase reporter qHTS assay (AID 1671197); note: nearly all actives have a fitted effect of over 65% in size
- Condition Context: P450-Glo CYP2C19 enzyme, luciferin luminescence, 1 h; series mostly up to 115 µM
Records with an inconclusive call do not appear. The source made the active and inactive calls. The call rests on the fitted dose curve; in most records, active means well fitted inhibition curve with a large enough effect in the repeat runs; inconclusive means weak or mixed curves; inactive means no such curve, though single readings can be large or run the other way.
Please answer using one outcome listed in yes (1) = active, no (0) = inactive

Cc1cccc(C)c1NC(=O)CN1CCN(CCCC(c2ccc(F)cc2)c2ccc(F)cc2)CC1    yes (1)
Clc1cccnc1    no (0)
Cc1cncc(C)c1    no (0)
CCO[Si](C)(C)OCC    no (0)
c1cc[nH]c1    no (0)
CCc1c(Br)c(Br)c(Br)c(Br)c1Br    no (0)

input: Please let me know the test result on file for "O=C1OC(=O)c2cccc3cccc1c23" .
output: no (0)

input: Given CCN(CC)CCOc1ccc(C(O)(Cc2ccc(Cl)cc2)c2ccc(C)cc2)cc1 (configuration not stated) , state the outcome it received in this test.
output: yes (1)

input: How was CCCCCCC(C)Nc1ccc(Nc2ccccc2)cc1 (configuration not stated) classified in this test?
output: yes (1)

input: I'd appreciate the recorded outcome for C#CC(O)CCC (configuration not stated) from this test.
output: no (0)

input: Could you please tell me the result logged for "CC(C)(C)CC(C)(C)c1ccccc1O" in this assay?
output: no (0)

input: Please let me know the test result on file for CC(C)=CCCC(C)O (configuration not stated) .
output: no (0)

input: Short answer needed: outcome of this test for "CCc1ccc(O)c(C(C)(C)C)c1" ?
output: yes (1)

input: Returns: the outcome recorded for "CC[N+](CC)(CC)Cc1ccccc1" in this assay.
output: no (0)

###

- System: Cytochrome P450 2C9 (Homo sapiens) (UniProt P11712)
- Sequence (P11712 whole entry, looked up): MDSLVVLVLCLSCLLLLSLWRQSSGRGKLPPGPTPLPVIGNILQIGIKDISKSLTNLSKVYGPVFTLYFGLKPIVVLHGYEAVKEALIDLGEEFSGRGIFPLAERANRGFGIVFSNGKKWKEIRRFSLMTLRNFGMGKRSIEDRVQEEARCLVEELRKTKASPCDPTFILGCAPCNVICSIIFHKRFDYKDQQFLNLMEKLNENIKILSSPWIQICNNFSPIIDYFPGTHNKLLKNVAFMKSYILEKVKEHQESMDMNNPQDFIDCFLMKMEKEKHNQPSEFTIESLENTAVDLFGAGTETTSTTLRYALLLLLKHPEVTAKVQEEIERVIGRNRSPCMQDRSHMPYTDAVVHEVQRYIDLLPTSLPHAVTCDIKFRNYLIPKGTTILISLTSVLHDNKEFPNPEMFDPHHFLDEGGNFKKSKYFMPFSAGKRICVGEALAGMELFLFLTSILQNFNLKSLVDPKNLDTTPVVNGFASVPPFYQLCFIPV
- Protocol: Cytochrome P450 Family 2 Subfamily C Member 9 (CYP2C9) small molecule antagonists: luciferase reporter qHTS assay (AID 1671198); note: nearly all actives have a fitted effect of over 50% in size
- Condition Context: P450-Glo CYP2C9 enzyme assay, luciferin luminescence; series mostly up to 115 µM
Results filed as inconclusive are left out. Active and inactive are the calls of the source. Calls come from the whole dose curve; as a rule, active = well fitted inhibition curve with a large enough effect in the repeat runs; inconclusive = weak or mixed curves; inactive = no such curve, though single readings can be large or run the other way.
A correct response names exactly one class from active, inactive

CC(C)(C)CC(C)(C)c1ccccc1O    active
CCCCN(C)C    inactive
S=P(N1CC1)(N1CC1)N1CC1    active
Cc1cncc(C)c1    inactive
Nc1ccc2cc3ccc(N)cc3nc2c1    inactive
CC(=O)Nc1ccc(O)cc1    inactive

input: Fill in: this test's call for "S=C(SSSSSSC(=S)N1CCCCC1)N1CCCCC1" is ___
output: active

input: Just curious, what result did "C=CC(=O)OCCC#N" get here?
output: inactive

input: I'd appreciate the recorded outcome for CCCCCCCCCCOCC(O)CN (stereo not given) from this test.
output: active

input: Lab log entry: "CCc1c(Br)c(Br)c(Br)c(Br)c1Br" — outcome as called in the assay?
output: inactive

input: Assay result, entry "Clc1cc(Cl)c(-c2c(Cl)c(Cl)cc(Cl)c2Cl)cc1Cl" — outcome?
output: inactive

input: For CCCC(O)C(O)CO (stereo not given) , which call appears in the assay record?
output: inactive

input: Hi team, can someone confirm the assay call for O=C1NC2CCCCN2C12CCN(CCCN1c3ccccc3CCc3ccc(Cl)cc31)CC2 (stereo not given) ?
output: inactive

input: Each compound tested received a call. Report the one for "O=S(=O)(O)CCCN1CCOCC1" .
output: inactive

input: Which result was noted for this compound in the test: OCCC(O)CO (stereo not given)
output: inactive

input: Which outcome was entered for the compound "O=C(Oc1ccccc1)c1cccc(C(=O)Oc2ccccc2)c1" in this test?
output: active

input: Can you look up the reported call for "CCCCCCCCC(C)=O" for me?
output: inactive

input: What did the test return for "CC1CCCCC1" ?
output: inactive

input: Could you please tell me the result logged for "O=C1c2c(O)ccc([N+](=O)[O-])c2C(=O)c2c([N+](=O)[O-])ccc(O)c21" in this assay?
output: active

input: Give the logged outcome of this assay for the following compound: "Cc1ccc2ccc3cccc4ccc1c2c34"
output: active

###

- Protocol: qHTS assay to identify small molecule agonists of the sonic hedgehog signaling (Shh) pathway - cell viability counter screen (AID 1259366); note: nearly all actives have a fitted effect of over 50% in size
- Condition Context: NIH/3T3 Gli1-Luc viability, CellTiter-Fluor, 24 h; series mostly up to 92.4 µM
Inconclusive results are not listed. Active and inactive are the calls of the source. Calls follow the shape of the dose curve; as a rule, active = well fitted cell-killing curve with a large enough effect in the repeat runs; inconclusive = weak or mixed curves, or effect the other way; inactive = flat fitted curve, though single readings scatter.
Could you please pick one outcome from this set? TRUE (active), FALSE (inactive)

input: Assay outcome for "O=C1OC(=O)c2cccc3cccc1c23" : what was it?
output: FALSE

input: Outcome logged for "Clc1cc(Cl)c(-c2c(Cl)c(Cl)cc(Cl)c2Cl)cc1Cl" in this assay:
output: FALSE

input: Kindly provide the recorded test outcome for the following compound: "Cc1ccc2ccc3cccc4ccc1c2c34"
output: FALSE

input: // param item: "COc1ccccc1C=O" ; yields the recorded call
output: FALSE

input: Which outcome did this test record for the compound "S=C(SSSSSSC(=S)N1CCCCC1)N1CCCCC1" ?
output: TRUE

input: Identify the outcome logged in this assay for the compound shown: "c1ccc(Nc2cccc3ccccc23)cc1"
output: FALSE

input: So what was the verdict on "Cc1cc(=O)[nH]c(=O)[nH]1" in this test?
output: FALSE

input: Please indicate how the test categorized CCCCOC(=O)C(C)CC (centres undefined) .
output: FALSE

input: Test call, this compound: "Oc1c(Br)cc(Br)c2cccnc12"
output: TRUE

input: # lookup: test call for "C=CC(=O)OCCOCC(CC)(COCCOC(=O)C=C)COCCOC(=O)C=C"
output: TRUE

input: Fill in: this test's call for "NC1(c2ccc(-c3nc4ccn5c(=O)[nH]nc5c4cc3-c3ccccc3)cc2)CCC1" is ___
output: TRUE

input: Recorded test call requested for CC1CNCC(C)O1 (centres undefined)
output: FALSE

input: I would be grateful if you could indicate the recorded call for Clc1ccc(C(c2ccccc2Cl)C(Cl)Cl)cc1 (centres undefined) .
output: FALSE

input: Kindly provide the recorded test outcome for the following compound: "OCCN1CN(CCO)CN(CCO)C1"
output: FALSE

###

- Protocol: qHTS RealTime-Glo MT Cell Viability Assay in HepG2 cells - 8 hour (AID 1224873); note: % is set by controls: 0 for no effect and ±100 for the full control effect; nearly all actives have a fitted effect of over 55% in size
- Condition Context: RealTime-Glo luminescence; series mostly up to 76.8 µM
Inconclusive results are not listed. Active and inactive are the calls of the source. The call rests on the fitted dose curve; in most records, active means well fitted cell-killing curve with a large enough effect in the repeat runs; inconclusive means weak or mixed curves; inactive means flat fitted curve, though single readings scatter.
Entry note: the call must match one of active, inactive

Cc1cncc(C)c1    inactive

input: Could you please tell me the result logged for "Cc1cn[nH]c1" in this assay?
output: inactive

input: Hello, I am checking results. What call was entered for "CCN(CC)c1cccc(C)c1" ?
output: inactive

input: Hello, I am checking results. What call was entered for "CCCCCCCCCCCC(=O)N(CC)CC" ?
output: inactive

input: // outcome(item) with item = "CC(=O)O[C@@H]1C[C@@H]2CC[C@@]1(C)C2(C)C"
output: inactive

input: Any idea what this test logged for "Nc1cc(Cl)c([N+](=O)[O-])cc1O" ?
output: inactive

input: Just curious, what result did CC1CCCNC1 (stereo not given) get here?
output: inactive

input: Give the logged outcome of this assay for the following compound: "C=CC(=O)OCCC#N"
output: inactive

input: For "c1cc2c3c(c1)ccc1cccc(c13)C2" , what call appears in the results of this test?
output: inactive

###

- System: Aromatase (Homo sapiens) (UniProt P11511)
- Sequence (P11511 whole entry, looked up): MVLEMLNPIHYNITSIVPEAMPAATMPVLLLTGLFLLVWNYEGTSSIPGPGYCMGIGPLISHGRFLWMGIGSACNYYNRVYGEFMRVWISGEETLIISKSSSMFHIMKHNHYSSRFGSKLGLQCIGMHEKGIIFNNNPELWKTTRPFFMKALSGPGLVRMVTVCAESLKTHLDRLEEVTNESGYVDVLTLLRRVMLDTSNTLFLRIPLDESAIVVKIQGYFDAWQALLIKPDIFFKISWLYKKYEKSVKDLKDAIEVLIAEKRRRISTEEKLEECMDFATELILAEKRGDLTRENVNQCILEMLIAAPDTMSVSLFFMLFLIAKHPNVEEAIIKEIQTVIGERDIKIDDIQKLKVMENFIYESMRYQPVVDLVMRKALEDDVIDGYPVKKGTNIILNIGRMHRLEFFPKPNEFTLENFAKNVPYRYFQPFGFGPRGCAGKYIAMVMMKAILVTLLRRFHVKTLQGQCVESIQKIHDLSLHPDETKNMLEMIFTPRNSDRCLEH
- Protocol: qHTS assay to identify aromatase inhibitors (AID 743083); note: nearly all actives have a fitted effect of over 55% in size
- Condition Context: MCF-7 aro ERE, testosterone-driven ERE luciferase, 24 h; series mostly up to 70.3 µM
Results filed as inconclusive are left out. Calls of active or inactive are those of the source. The call rests on the fitted dose curve; in most records, active means well fitted inhibition curve with a large enough effect in the repeat runs; inconclusive means weak or mixed curves; inactive means no such curve, though single readings can be large or run the other way.
Response enum: active, inactive

N[C@@H](CSSC[C@H](N)C(=O)O)C(=O)O    inactive
S=P(N1CC1)(N1CC1)N1CC1    inactive

input: // param item: "CCCCCCCCCCCC(=O)N(CC)CC" ; yields the recorded call
output: inactive

input: Any idea what this test logged for "C=C(C)C(=O)OCCC[Si](Cl)(Cl)Cl" ?
output: inactive

input: In this assay, the call recorded for "NC(=O)c1ccccc1N" was what?
output: inactive

input: Per the records of this test, what outcome belongs to "C/C=C/C=N/NC(=O)c1ccncc1" ?
output: inactive

input: Please indicate how the test categorized "NC(=O)c1nc(-c2cccc(-c3cc(F)ccc3OCC(F)(F)C(F)(F)F)c2)n[nH]1" .
output: active
